Form field: relative viability (one value per entry).
# Test system: LU99A
# Assay remarks: relative viability (nuclei count vs DMSO), 5 days (fraction); higher = more cells survive
# Condition notes: first compound 0.4 µM

[
  {
    "Molecule": "O=C(O)c1ccc(-c2c[nH]c3ncc(-c4ccccc4)cc23)cc1C1CCCC1 + C[C@]1(O)C[C@@H](c2nc(-c3ccc4ccc(-c5ccccc5)nc4c3)c3c(N)nccn32)C1 [Linsitinib] (partner 1 µM)",
    "Target": "LU99A",
    "relative viability": 0.533
  },
  {
    "Molecule": "O=C(O)c1ccc(-c2c[nH]c3ncc(-c4ccccc4)cc23)cc1C1CCCC1 + Cc1nc(NC(=O)N2CCC[C@H]2C(N)=O)sc1-c1ccnc(C(C)(C)C(F)(F)F)c1 [Alpelisib] (partner 2 µM)",
    "Target": "LU99A",
    "relative viability": 0.485
  },
  {
    "Molecule": "O=C(O)c1ccc(-c2c[nH]c3ncc(-c4ccccc4)cc23)cc1C1CCCC1 + CC(=O)c1c(C)c2cnc(Nc3ccc(N4CCNCC4)cn3)nc2n(C2CCCC2)c1=O [Palbociclib] (partner 0.5 µM)",
    "Target": "LU99A",
    "relative viability": 0.375
  }
]

====

# Test system: NCI-H1395
# Assay remarks: relative viability (nuclei count vs DMSO), 5 days (fraction); higher = more cells survive
# Condition notes: first compound 1.265 µM

[
  {
    "Compound": "O=C(O)c1ccc(-c2c[nH]c3ncc(-c4ccccc4)cc23)cc1C1CCCC1 + CS(=O)(=O)N1CCN(Cc2cc3nc(-c4cccc5[nH]ncc45)nc(N4CCOCC4)c3s2)CC1 [Pictilisib] (partner 1 µM)",
    "relative viability": 0.555
  },
  {
    "Compound": "O=C(O)c1ccc(-c2c[nH]c3ncc(-c4ccccc4)cc23)cc1C1CCCC1 + COc1cccc2cc(-c3nc([C@H]4CC[C@H](C(=O)O)CC4)n4ncnc(N)c34)[nH]c12 [OSI-027] (partner 0.5 µM)",
    "relative viability": 0.537
  },
  {
    "Compound": "O=C(O)c1ccc(-c2c[nH]c3ncc(-c4ccccc4)cc23)cc1C1CCCC1 + Nc1ncn([C@H]2C[C@H](O)[C@@H](CO)O2)c(=O)n1 [Decitabine] (partner 2 µM)",
    "relative viability": 0.728
  }
]

====

# Test system: PC-14
# Assay remarks: relative viability (nuclei count vs DMSO), 5 days (fraction); higher = more cells survive
# Condition notes: first compound 0.4 µM
Listed here are compounds together with their documented relative viability.

[
  {
    "Compound": "O=C(O)c1ccc(-c2c[nH]c3ncc(-c4ccccc4)cc23)cc1C1CCCC1 + CC(C)C[C@H](NC(=O)[C@H](Cc1ccccc1)NC(=O)c1cnccn1)B(O)O [Bortezomib] (partner 0.002 µM)",
    "Target": "PC-14",
    "relative viability": 0.891
  },
  {
    "Compound": "O=C(O)c1ccc(-c2c[nH]c3ncc(-c4ccccc4)cc23)cc1C1CCCC1 + CCNC(=O)c1noc(-c2cc(C(C)C)c(O)cc2O)c1-c1ccc(CN2CCOCC2)cc1 [Luminespib] (partner 0.01 µM)",
    "Target": "PC-14",
    "relative viability": 0.141
  },
  {
    "Compound": "O=C(O)c1ccc(-c2c[nH]c3ncc(-c4ccccc4)cc23)cc1C1CCCC1 + CS(=O)(=O)N1CCN(Cc2cc3nc(-c4cccc5[nH]ncc45)nc(N4CCOCC4)c3s2)CC1 [Pictilisib] (partner 1 µM)",
    "Target": "PC-14",
    "relative viability": 0.713
  },
  {
    "Compound": "O=C(O)c1ccc(-c2c[nH]c3ncc(-c4ccccc4)cc23)cc1C1CCCC1 + CC(=O)Nc1cccc(-n2c(=O)n(C3CC3)c(=O)c3c(Nc4ccc(I)cc4F)n(C)c(=O)c(C)c32)c1 [Trametinib] (partner 0.02 µM)",
    "Target": "PC-14",
    "relative viability": 0.703
  },
  {
    "Compound": "O=C(O)c1ccc(-c2c[nH]c3ncc(-c4ccccc4)cc23)cc1C1CCCC1 + Cc1cc(Nc2cc(N3CCN(C)CC3)nc(Sc3ccc(NC(=O)C4CC4)cc3)n2)n[nH]1 [Tozasertib] (partner 0.1 µM)",
    "Target": "PC-14",
    "relative viability": 0.484
  },
  {
    "Compound": "O=C(O)c1ccc(-c2c[nH]c3ncc(-c4ccccc4)cc23)cc1C1CCCC1 + C[C@@H](Oc1cc(-c2cnn(C3CCNCC3)c2)cnc1N)c1c(Cl)ccc(F)c1Cl [Crizotinib] (partner 1 µM)",
    "Target": "PC-14",
    "relative viability": 0.921
  }
]
